Ref: paper PMC8901636

assay: PK and tissue distribution after single oral administration in Ba/F3-EPOR-JAK2^V617F tumor-bearing mice; format: in vivo; details: BALB/c nude, mouse, stomach, oral, 30 mg/kg; single; 0.5 h; read-out: FM concentration, Stomach
ATTRIBUTE MEASURED: concentration at 0.5 h
Write down the value, and be sure its unit follows.

The recorded concentration at 0.5 h for "Cc1cnc(Nc2ccc(N3CCC(N(C)CCO)CC3)c(F)c2)nc1-c1cnn(C(C)C)c1" is 30300 ng/g

----------
assay: PK and tissue distribution after repeated oral administration in Ba/F3-EPOR-JAK2^V617F tumor-bearing mice; assay type: in vivo; details: BALB/c nude, mouse, spleen, oral, 30 mg/kg; repeated; 0.25 h; read-out: FM concentration, Spleen
ATTRIBUTE MEASURED: concentration at 0.25 h (ng/g)
Expressed in ng/g, but write only the number.

The recorded concentration at 0.25 h for "Cc1cnc(Nc2ccc(N3CCC(N(C)CCO)CC3)c(F)c2)nc1-c1cnn(C(C)C)c1" is 3700
